Assay: Rat pharmacokinetic evaluation test
Assay type: in vivo
Settings: male, po, SD rats, plasma, p.o. 5 mg/kg
VALUE TYPE: AUC(0-t)

> print(dat)
                                        mol  endpoint.result
1  CC(C)c1c(F)cc(N2C[C@H](N(C)S(C)(=O)=O)[C@H]2C)c2cnc(Nc3ccnc(-c4cn(C)nc4Cl)n3)cc12     1770 ng·h/mL
2  CC(C)c1c(F)cc(N2C[C@H](CS(C)(=O)=O)[C@H]2C)c2cnc(Nc3ccnc(-c4cn(C)nc4Cl)n3)cc12     2100 ng·h/mL
3  Cc1nn(C)cc1-c1nccc(Nc2cc3c(C(C)C)c(F)cc(N4C[C@H](N(C)S(C)(=O)=O)[C@H]4C)c3cn2)n1     2000 ng·h/mL
